All values here come from patent US9988400B2.

# subject.of.test: HEK cells stably transfected with tetracycline inducible hNR1 and hNR2A (Homo sapiens, UniProt Q05586+Q12879)
# Construct: expressed in transfected cells; host or cells: HEK cells, stably transfected, tetracycline/doxycycline inducible
# Sequence (Q12879 23-1464, other chains not shown): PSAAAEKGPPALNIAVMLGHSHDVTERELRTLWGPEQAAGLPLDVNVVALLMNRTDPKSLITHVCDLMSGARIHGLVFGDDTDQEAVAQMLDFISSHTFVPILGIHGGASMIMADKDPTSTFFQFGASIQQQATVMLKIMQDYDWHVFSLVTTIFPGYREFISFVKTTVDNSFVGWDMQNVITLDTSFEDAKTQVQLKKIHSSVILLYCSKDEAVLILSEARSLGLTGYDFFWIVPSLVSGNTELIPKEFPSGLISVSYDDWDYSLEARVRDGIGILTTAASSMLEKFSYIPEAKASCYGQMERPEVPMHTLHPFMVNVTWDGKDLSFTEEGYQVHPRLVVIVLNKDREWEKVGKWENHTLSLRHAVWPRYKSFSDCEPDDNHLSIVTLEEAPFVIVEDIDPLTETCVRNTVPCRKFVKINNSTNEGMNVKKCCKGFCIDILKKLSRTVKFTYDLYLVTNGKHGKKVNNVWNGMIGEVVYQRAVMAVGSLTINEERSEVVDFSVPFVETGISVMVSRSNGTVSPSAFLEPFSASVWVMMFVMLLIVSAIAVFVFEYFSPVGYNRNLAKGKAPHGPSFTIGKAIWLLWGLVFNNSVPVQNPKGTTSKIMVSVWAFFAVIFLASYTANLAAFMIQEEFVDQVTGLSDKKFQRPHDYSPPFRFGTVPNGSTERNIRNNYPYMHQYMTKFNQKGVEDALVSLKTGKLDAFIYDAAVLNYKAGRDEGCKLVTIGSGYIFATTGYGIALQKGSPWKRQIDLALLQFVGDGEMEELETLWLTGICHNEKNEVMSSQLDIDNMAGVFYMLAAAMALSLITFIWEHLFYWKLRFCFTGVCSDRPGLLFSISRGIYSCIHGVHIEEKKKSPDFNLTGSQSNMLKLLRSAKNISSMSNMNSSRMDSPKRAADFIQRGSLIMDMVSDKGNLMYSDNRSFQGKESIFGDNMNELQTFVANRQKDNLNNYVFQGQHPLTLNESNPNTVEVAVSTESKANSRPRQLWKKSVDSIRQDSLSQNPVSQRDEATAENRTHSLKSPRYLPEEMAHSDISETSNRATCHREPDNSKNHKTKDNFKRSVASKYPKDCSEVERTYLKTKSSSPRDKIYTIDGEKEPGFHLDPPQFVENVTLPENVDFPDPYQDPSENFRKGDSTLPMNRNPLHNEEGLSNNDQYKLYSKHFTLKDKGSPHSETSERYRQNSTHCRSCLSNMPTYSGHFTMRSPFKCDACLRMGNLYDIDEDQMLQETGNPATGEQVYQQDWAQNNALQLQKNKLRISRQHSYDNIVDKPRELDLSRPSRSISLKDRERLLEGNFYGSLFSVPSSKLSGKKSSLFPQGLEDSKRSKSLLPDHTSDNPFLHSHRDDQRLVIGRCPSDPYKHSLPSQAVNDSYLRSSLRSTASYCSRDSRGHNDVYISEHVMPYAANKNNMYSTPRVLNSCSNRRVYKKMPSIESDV
# assay.name: Assay 1: Cell-Based Assay, cytosolic calcium response to positive allosteric modulators (with 30 μM glycine and 300 nM L-glutamate, EC30)
# experimental.setup: Table 2; responses scaled relative to 100 μM L-glutamate maximal response (100%) and 0 μM L-glutamate (0%)
experimental.endpoint: Max % (%)

(I) Cc1cc(C)n(Cc2nc3sc(C)c([C@@H]4C[C@H]4CO)n3c(=O)c2F)n1 (relative stereo) [Example 15.18]
(II) Cc1sc2nc(Cc3ccnc(C#N)c3)cc(=O)n2c1[C@@H]1C[C@H]1CO (relative stereo) [Example 20.12]
(III) Cc1sc2nc(COc3ccc(F)cc3)cc(=O)n2c1-c1cncnc1 [Example 4.5]
(IV) CCN(Cc1cc(=O)n2c(C3CC3C#N)c(C)sc2n1)c1ccc(F)cc1 (centres unmarked) [Example 14.2]
input: Sort the listed compounds above so the one with the largest Max % comes first and the smallest comes last. Output spec: a listing of the labels in the requested order.
output: IV, I, II, III
